meta.source: paper PMC10660663

assay-remarks: Enantiospecific SuFEx S-O bond formation: enantiopure di-sulfonimidoyl fluoride + sodium diphenolate (1:1), [1+1] macrocyclisation, one pot
test-conditions: the molecule shown is the open-chain precursor; 21-membered ring; MeCN; 12.5 mM; 60.0 °C; 6.0 h
So I've got a bunch of molecules here, and I need their ring closure, isolated yield values.
Numbers only; they are read as %.

**Query** Consider the molecule Cc1ccc([S@@](=O)(F)=NC(=O)c2ccc(C(=O)N=[S@@](=O)(Oc3ccc(C(c4ccc([O-])cc4)(C(F)(F)F)C(F)(F)F)cc3)c3ccc(C)cc3)cc2)cc1 [(S,S)-3x] . State its measured ring closure, isolated yield.
**Result** 33

**Query** Consider the molecule Cc1ccc([S@](=O)(F)=NC(=O)c2ccc(C(=O)N=[S@](=O)(Oc3ccc(Cc4ccc([O-])cc4)cc3)c3ccc(C)cc3)cc2)cc1 [(R,R)-3u] . State its measured ring closure, isolated yield.
**Result** 42

**Query** Consider the molecule Cc1ccc([S@](=O)(F)=NC(=O)c2ccc(C(=O)N=[S@](=O)(Oc3ccc(C(c4ccc([O-])cc4)(C(F)(F)F)C(F)(F)F)cc3)c3ccc(C)cc3)cc2)cc1 [(R,R)-3x] . State its measured ring closure, isolated yield.
**Result** 35

----------
assay-remarks: Enantiospecific SuFEx S-O bond formation: enantiopure di-sulfonimidoyl fluoride + sodium diphenolate (1:1), [1+1] macrocyclisation, one pot
test-conditions: the molecule shown is the open-chain precursor; 21-membered ring; MeCN; 12.5 mM; 60.0 °C; 6.0 h
So I've got a bunch of compounds here, and I need their ring closure, isolated yield values.

**Query** Consider the compound Cc1ccc([S@@](=O)(F)=NC(=O)c2cccc(C(=O)N=[S@@](=O)(Oc3ccc(SSc4ccc([O-])cc4)cc3)c3ccc(C)cc3)n2)cc1 [(S,S)-3r] . State its measured ring closure, isolated yield.
**Result** 71%

**Query** Consider the compound Cc1ccc([S@](=O)(F)=NC(=O)c2ccc(C(=O)N=[S@](=O)(Oc3ccc(C(C)(C)c4ccc([O-])cc4)cc3)c3ccc(C)cc3)cc2)cc1 [(R,R)-3w] . State its measured ring closure, isolated yield.
**Result** 54%

**Query** Consider the compound Cc1ccc([S@@](=O)(F)=NC(=O)c2ccc(C(=O)N=[S@@](=O)(Oc3ccc(Oc4ccc([O-])cc4)cc3)c3ccc(C)cc3)cc2)cc1 [(S,S)-3v] . State its measured ring closure, isolated yield.
**Result** 34%

**Query** Consider the compound Cc1ccc([S@@](=O)(F)=NC(=O)c2ccc(C(=O)N=[S@@](=O)(Oc3ccc(C(C)(C)c4ccc([O-])cc4)cc3)c3ccc(C)cc3)cc2)cc1 [(S,S)-3w] . State its measured ring closure, isolated yield.
**Result** 62%

**Query** Consider the compound Cc1ccc([S@](=O)(F)=NC(=O)c2ccc(C(=O)N=[S@](=O)(Oc3ccc(Oc4ccc([O-])cc4)cc3)c3ccc(C)cc3)cc2)cc1 [(R,R)-3v] . State its measured ring closure, isolated yield.
**Result** 26%

**Query** Consider the compound Cc1ccc([S@@](=O)(F)=NC(=O)c2ccc(C(=O)N=[S@@](=O)(Oc3ccc(Cc4ccc([O-])cc4)cc3)c3ccc(C)cc3)cc2)cc1 [(S,S)-3u] . State its measured ring closure, isolated yield.
**Result** 54%

----------
assay-remarks: Enantiospecific SuFEx S-O bond formation: enantiopure di-sulfonimidoyl fluoride + sodium diphenolate (1:1), [1+1] macrocyclisation, one pot
test-conditions: the molecule shown is the open-chain precursor; 26-membered ring; MeCN; 12.5 mM; 60.0 °C; 6.0 h
attribute-measured: ring closure, isolated yield (%)
Numbers only; they are read as %.

**Query** Consider the compound Cc1ccc([S@@](=O)(F)=NC(=O)c2ccc(Oc3ccc(C(=O)N=[S@@](=O)(Oc4ccc(Oc5ccc([O-])cc5)cc4)c4ccc(C)cc4)cc3)cc2)cc1 [(S,S)-3Ab] . State its measured ring closure, isolated yield.
**Result** 14

**Query** Consider the compound Cc1ccc([S@](=O)(F)=NC(=O)c2ccc(Oc3ccc(C(=O)N=[S@](=O)(Oc4ccc(Oc5ccc([O-])cc5)cc4)c4ccc(C)cc4)cc3)cc2)cc1 [(R,R)-3Ab] . State its measured ring closure, isolated yield.
**Result** 10

**Query** Consider the compound Cc1ccc([S@@](=O)(F)=NC(=O)c2ccc(Oc3ccc(C(=O)N=[S@@](=O)(Oc4ccc(Cc5ccc([O-])cc5)cc4)c4ccc(C)cc4)cc3)cc2)cc1 [(S,S)-3Aa] . State its measured ring closure, isolated yield.
**Result** 12

**Query** Consider the compound Cc1ccc([S@@](=O)(F)=NC(=O)c2ccc(Oc3ccc(C(=O)N=[S@@](=O)(Oc4ccc(C(C)(C)c5ccc([O-])cc5)cc4)c4ccc(C)cc4)cc3)cc2)cc1 [(S,S)-3Ac] . State its measured ring closure, isolated yield.
**Result** 16

**Query** Consider the compound Cc1ccc([S@](=O)(F)=NC(=O)c2ccc(Oc3ccc(C(=O)N=[S@](=O)(Oc4ccc(Cc5ccc([O-])cc5)cc4)c4ccc(C)cc4)cc3)cc2)cc1 [(R,R)-3Aa] . State its measured ring closure, isolated yield.
**Result** 12

----------
assay-remarks: Enantiospecific SuFEx S-O bond formation: enantiopure di-sulfonimidoyl fluoride + sodium diphenolate (1:1), [1+1] macrocyclisation, one pot
test-conditions: the molecule shown is the open-chain precursor; 25-membered ring; MeCN; 12.5 mM; 60.0 °C; 6.0 h
So I've got a bunch of compounds here, and I need their ring closure, isolated yield values.
Numbers only; they are read as %.

**Query** Consider the compound Cc1ccc([S@@](=O)(F)=NC(=O)c2ccc(-c3ccc(C(=O)N=[S@@](=O)(Oc4ccc(C(C)(C)c5ccc([O-])cc5)cc4)c4ccc(C)cc4)cc3)cc2)cc1 [[1+1] of 4i (not observed)] . State its measured ring closure, isolated yield.
**Result** 0

**Query** Consider the compound Cc1ccc([S@@](=O)(F)=NC(=O)c2ccc(-c3ccc(C(=O)N=[S@@](=O)(Oc4ccc(C(c5ccc([O-])cc5)(C(F)(F)F)C(F)(F)F)cc4)c4ccc(C)cc4)cc3)cc2)cc1 [[1+1] of 4j (not observed)] . State its measured ring closure, isolated yield.
**Result** 0

**Query** Consider the compound Cc1ccc([S@@](=O)(F)=NC(=O)c2ccc(-c3ccc(C(=O)N=[S@@](=O)(Oc4ccc(Oc5ccc([O-])cc5)cc4)c4ccc(C)cc4)cc3)cc2)cc1 [[1+1] of 4g (not observed)] . State its measured ring closure, isolated yield.
**Result** 0

----------
assay-remarks: Enantiospecific SuFEx S-O bond formation: enantiopure di-sulfonimidoyl fluoride + sodium diphenolate (1:1), [1+1] macrocyclisation, one pot
test-conditions: the molecule shown is the open-chain precursor; 25-membered ring; MeCN; 12.5 mM; 60.0 °C; 6.0 h
attribute-measured: ring closure, isolated yield
Could you kindly put the unit after your number?

**Query** Consider the molecule Cc1ccc([S@@](=O)(F)=NC(=O)c2ccc(-c3ccc(C(=O)N=[S@@](=O)(Oc4ccc(Cc5ccc([O-])cc5)cc4)c4ccc(C)cc4)cc3)cc2)cc1 [[1+1] of 4f (not observed)] . State its measured ring closure, isolated yield.
**Result** 0%

**Query** Consider the molecule Cc1ccc([S@](=O)(F)=NC(=O)c2ccc(C(=O)N=[S@](=O)(Oc3ccc(C(C)(C)c4cccc(C(C)(C)c5ccc([O-])cc5)c4)cc3)c3ccc(C)cc3)cc2)cc1 [(R,R)-3c] . State its measured ring closure, isolated yield.
**Result** 35%

**Query** Consider the molecule Cc1ccc([S@@](=O)(F)=NC(=O)c2ccc(C(=O)N=[S@@](=O)(Oc3ccc(C(C)(C)c4cccc(C(C)(C)c5ccc([O-])cc5)c4)cc3)c3ccc(C)cc3)cc2)cc1 [(S,S)-3c] . State its measured ring closure, isolated yield.
**Result** 42%

----------
So I've got a bunch of compounds here, and I need their ring closure, isolated yield values.
assay-remarks: Enantiospecific SuFEx S-O bond formation: enantiopure di-sulfonimidoyl fluoride + sodium diphenolate (1:1), [1+1] macrocyclisation, one pot
test-conditions: the molecule shown is the open-chain precursor; 26-membered ring; MeCN; 12.5 mM; 60.0 °C; 6.0 h
Numbers only; they are read as %.

**Query** Consider the compound Cc1ccc([S@](=O)(F)=NC(=O)c2ccc(Oc3ccc(C(=O)N=[S@](=O)(Oc4ccc(C(C)(C)c5ccc([O-])cc5)cc4)c4ccc(C)cc4)cc3)cc2)cc1 [(R,R)-3Ac] . State its measured ring closure, isolated yield.
**Result** 14

**Query** Consider the compound Cc1ccc([S@@](=O)(F)=NC(=O)c2ccc(Oc3ccc(C(=O)N=[S@@](=O)(Oc4ccc(C(c5ccc([O-])cc5)(C(F)(F)F)C(F)(F)F)cc4)c4ccc(C)cc4)cc3)cc2)cc1 [(S,S)-3Ad] . State its measured ring closure, isolated yield.
**Result** 20

**Query** Consider the compound Cc1ccc([S@](=O)(F)=NC(=O)c2ccc(Oc3ccc(C(=O)N=[S@](=O)(Oc4ccc(C(c5ccc([O-])cc5)(C(F)(F)F)C(F)(F)F)cc4)c4ccc(C)cc4)cc3)cc2)cc1 [(R,R)-3Ad] . State its measured ring closure, isolated yield.
**Result** 12
